experiment: Oral bioavailability in healthy Homo sapiens (human); type: ADME, organism-based; details: in vivo
PROPERTY LABEL: bioavailability (%)
Provide the reading as a plain figure in %.

What value of bioavailability has been reported for the following molecule? CO/N=C1\CN(c2nc3c(cc2F)c(=O)c(C(=O)O)cn3C2CC2)CC1CN (configuration not stated) 70

---

tested on: Mycobacterium tuberculosis; experiment: Antitubercular activity against Mycobacterium tuberculosis; assay type: functional, organism-based
Items are presented alongside their recorded IC50.
Provide the reading as a plain figure in µg/mL.

Examples with their reported IC50 follow.
CCn1cc(C(=O)O)c(=O)c2cc(F)c(N3CCNCC3)cc21
8
CNC1CCCN(c2c(F)cc3c(=O)c(C(=O)O)cn(C4CC4)c3c2OC)C1 (stereo unspecified)
0.5
C[C@H]1CN(c2c(F)cc3c(=O)c(C(=O)O)cn(C4CC4)c3c2OC(F)(F)F)CCN1.Cl
0.25
O=C(O)c1cn(C2CC2)c2cc(N3CCNCC3)c(F)cc2c1=O
0.5
C[C@@H]1CN(c2c(F)c(N)c3c(=O)c(C(=O)O)cn(C4CC4)c3c2F)C[C@H](C)N1
0.25

In the following, a different compound is considered.
What value of IC50 has been reported for the following compound? CC1COc2c(N3CCN(C)CC3)c(F)cc3c(=O)c(C(=O)O)cn1c23 (racemic) 0.5

---

assay: Elimination half life in healthy Homo sapiens (human); assay type: ADME, organism-based; settings: in vivo, read-out: beta t1/2 (converted)
Items are presented alongside their recorded half-life.
Provide the reading as a plain figure in h.

N[C@@H]1CN(c2c(F)cc3c(=O)c(C(=O)O)cn([C@@H]4C[C@@H]4F)c3c2Cl)CC12CC2 [SITAFLOXACIN ANHYDROUS]
4.4

What value of half-life has been reported for the following molecule? CO/N=C1\CN(c2nc3c(cc2F)c(=O)c(C(=O)O)cn3C2CC2)CC1CN (configuration not stated) 7.4

---

experiment: Drug uptake in Mus musculus (mouse) serum at 100 mg/kg, po at 0.25 hr; format: ADME, organism-based; design: dose 100 mg/kg, route oral; conditions: read-out: Drug uptake
PROPERTY LABEL: concentration at 0.25 h (ng/mL)
Provide the reading as a plain figure in ng/mL.

What value of concentration at 0.25 h has been reported for the following compound? COc1c(N2C[C@@H]3CCCN[C@@H]3C2)c(F)cc2c(=O)c(C(=O)O)cn(C3CC3)c12 7800

Ref: ChEMBL document CHEMBL3046014
